# Test system: Streptococcus pneumoniae ATCC 51938
# measurement.conditions: S. pneumoniae ATCC 51938
Non-standard residues stand in square brackets, D forms with d. Residues, ends and D or L forms follow the SMILES beside them. Dip = N[C@H](C(=O)O)C(c1ccccc1)c1ccccc1; 2Nal = N[C@@H](Cc1ccc2ccccc2c1)C(=O)O
reported.property: Broad-spectrum activity S. pneumoniae (ATCC 51938)
Provide a numeric answer; units are not to be included.

Reference set (2 entries):
>  <compound>
N=C(N)NCCC[C@@H]1NC(=O)[C@H](CCCNC(=N)N)NC(=O)[C@H](C(c2ccccc2)c2ccccc2)NC(=O)[C@H](C(c2ccccc2)c2ccccc2)NC(=O)[C@H](CCCNC(=N)N)NC(=O)[C@H](CCCNC(=N)N)NC(=O)[C@H](C(c2ccccc2)c2ccccc2)NC1=O [IFX-016, c[Arg-Dip-Arg-Arg-Dip-Dip-Arg]] (cyclo(R[Dip]RR[Dip][Dip]R))

>  <experimental.target>
Streptococcus pneumoniae ATCC 51938

>  <result.value>
12.5

$$$$
>  <compound>
N=C(N)NCCC[C@@H]1NC(=O)[C@H](CCCNC(=N)N)NC(=O)[C@H](Cc2ccc3ccccc3c2)NC(=O)[C@H](Cc2ccc3ccccc3c2)NC(=O)[C@H](CCCNC(=N)N)NC(=O)[C@H](CCCNC(=N)N)NC(=O)[C@H](Cc2ccc3ccccc3c2)NC1=O [IFX-018, c[Arg-NaI-Arg-Arg-NaI-NaI-Arg]] (cyclo(R[2Nal]RR[2Nal][2Nal]R))

>  <experimental.target>
Streptococcus pneumoniae ATCC 51938

>  <result.value>
12.5

$$$$

Then there is this compound:
Prompt: Assign Broad-spectrum activity S. pneumoniae (ATCC 51938) to the following record: N=C(N)NCCC[C@@H]1NC(=O)[C@H](CCCNC(=N)N)NC(=O)[C@H](CCCNC(=N)N)NC(=O)[C@H](C(c2ccccc2)c2ccccc2)NC(=O)[C@H](C(c2ccccc2)c2ccccc2)NC(=O)[C@H](Cc2c[nH]c3ccccc23)NC1=O [IFX-020, c[Arg-Arg-Arg-Trp-Dip-Dip]] (cyclo([Dip][Dip]RRRW))
Completion: 12.5

###

# Tested on: Escherichia coli (ATCC 25922)
# Assay type: cell-based
Positions of bridges follow the written chain, without caps; N, C: chain ends. Residues, ends and D or L forms follow the SMILES beside them.
Listed here: items and their measured E. coli (ATCC 25922) MBC.
Report the value in µg/mL with no unit label.

Reference set (5 entries):
>  <compound>
N=C(N)NCCC[C@@H]1NC(=O)[C@H](CCCNC(=N)N)NC(=O)[C@H](CCCNC(=N)N)NC(=O)[C@H](CCCNC(=N)N)NC(=O)[C@@H](NC(=O)[C@H](Cc2c[nH]c3ccccc23)NC(=O)[C@H](Cc2c[nH]c3ccccc23)NC(=O)[C@H](Cc2c[nH]c3ccccc23)NC(=O)[C@@H](N)Cc2c[nH]c3ccccc23)CSSC[C@@H](C(=O)O)NC1=O [IFX-334] (H-WWWWCRRRRC-OH; disulfide 5-10)

>  <experimental.target>
Escherichia coli (ATCC 25922)

>  <value.units>
µg/mL

>  <E. coli (ATCC 25922) MBC>
64

$$$$
>  <compound>
N=C(N)NCCC[C@H](NC(=O)[C@H](CCCNC(=N)N)NC(=O)[C@H](CCCNC(=N)N)NC(=O)[C@H](CCCNC(=N)N)NC(=O)[C@@H](N)CS)C(=O)N[C@@H](Cc1c[nH]c2ccccc12)C(=O)N[C@@H](Cc1c[nH]c2ccccc12)C(=O)N[C@@H](Cc1c[nH]c2ccccc12)C(=O)N[C@@H](Cc1c[nH]c2ccccc12)C(=O)N[C@@H](CS)C(=O)O [IFX-328] (H-CRRRRWWWWC-OH)

>  <experimental.target>
Escherichia coli (ATCC 25922)

>  <value.units>
µg/mL

>  <E. coli (ATCC 25922) MBC>
512

$$$$
>  <compound>
N=C(N)NCCC[C@H](NC(=O)[C@H](CCCNC(=N)N)NC(=O)[C@H](CCCNC(=N)N)NC(=O)[C@@H](N)CCCNC(=N)N)C(=O)N[C@H]1CSSC[C@@H](C(=O)O)NC(=O)[C@H](Cc2c[nH]c3ccccc23)NC(=O)[C@H](Cc2c[nH]c3ccccc23)NC(=O)[C@H](Cc2c[nH]c3ccccc23)NC(=O)[C@H](Cc2c[nH]c3ccccc23)NC1=O [IFX-333] (H-RRRRCWWWWC-OH; disulfide 5-10)

>  <experimental.target>
Escherichia coli (ATCC 25922)

>  <value.units>
µg/mL

>  <E. coli (ATCC 25922) MBC>
32

$$$$
>  <compound>
N=C(N)NCCC[C@H](NC(=O)[C@H](CCCNC(=N)N)NC(=O)[C@H](CCCNC(=N)N)NC(=O)[C@H](CCCNC(=N)N)NC(=O)[C@H](CS)NC(=O)[C@H](Cc1c[nH]c2ccccc12)NC(=O)[C@H](Cc1c[nH]c2ccccc12)NC(=O)[C@H](Cc1c[nH]c2ccccc12)NC(=O)[C@@H](N)Cc1c[nH]c2ccccc12)C(=O)N[C@@H](CS)C(=O)O [IFX-332] (H-WWWWCRRRRC-OH)

>  <experimental.target>
Escherichia coli (ATCC 25922)

>  <value.units>
µg/mL

>  <E. coli (ATCC 25922) MBC>
256

$$$$
>  <compound>
N=C(N)NCCC[C@@H]1NC(=O)[C@H](CCCNC(=N)N)NC(=O)[C@H](CCCNC(=N)N)NC(=O)[C@H](Cc2c[nH]c3ccccc23)NC(=O)[C@H](Cc2c[nH]c3ccccc23)NC(=O)[C@H](Cc2c[nH]c3ccccc23)NC(=O)[C@H](Cc2c[nH]c3ccccc23)NC(=O)[C@H](CCCNC(=N)N)NC1=O [[R4W4], reference compound] (cyclo(RRRRWWWW))

>  <experimental.target>
Escherichia coli (ATCC 25922)

>  <value.units>
µg/mL

>  <E. coli (ATCC 25922) MBC>
32

$$$$

Prompt: State E. coli (ATCC 25922) MBC (Escherichia coli (ATCC 25922)) of N=C(N)NCCC[C@@H]1NC(=O)[C@H](CS)NC(=O)[C@H](Cc2c[nH]c3ccccc23)NC(=O)[C@H](Cc2c[nH]c3ccccc23)NC(=O)[C@H](Cc2c[nH]c3ccccc23)NC(=O)[C@H](Cc2c[nH]c3ccccc23)NC(=O)[C@H](CS)NC(=O)[C@H](CCCNC(=N)N)NC(=O)[C@H](CCCNC(=N)N)NC(=O)[C@H](CCCNC(=N)N)NC1=O [IFX-329] (cyclo(RRRCWWWWCR)) .
Completion: 64

Prompt: State E. coli (ATCC 25922) MBC (Escherichia coli (ATCC 25922)) of N=C(N)NCCC[C@H](NC(=O)[C@H](CCCNC(=N)N)NC(=O)[C@H](CCCNC(=N)N)NC(=O)[C@@H](N)CCCNC(=N)N)C(=O)N[C@@H](CS)C(=O)N[C@@H](Cc1c[nH]c2ccccc12)C(=O)N[C@@H](Cc1c[nH]c2ccccc12)C(=O)N[C@@H](Cc1c[nH]c2ccccc12)C(=O)N[C@@H](Cc1c[nH]c2ccccc12)C(=O)N[C@@H](CS)C(=O)O [IFX-331] (H-RRRRCWWWWC-OH) .
Completion: 32

Prompt: State E. coli (ATCC 25922) MBC (Escherichia coli (ATCC 25922)) of N=C(N)NCCC[C@@H]1NC(=O)[C@H](CCCNC(=N)N)NC(=O)[C@H](CCCNC(=N)N)NC(=O)[C@@H]2CSSC[C@H](NC(=O)[C@H](CCCNC(=N)N)NC1=O)C(=O)N[C@@H](Cc1c[nH]c3ccccc13)C(=O)N[C@@H](Cc1c[nH]c3ccccc13)C(=O)N[C@@H](Cc1c[nH]c3ccccc13)C(=O)N[C@@H](Cc1c[nH]c3ccccc13)C(=O)N2 [IFX-330] (cyclo(RRRCWWWWCR); disulfide 4-9) .
Completion: 64

Prompt: State E. coli (ATCC 25922) MBC (Escherichia coli (ATCC 25922)) of N=C(N)NCCC[C@@H]1NC(=O)[C@H](CCCNC(=N)N)NC(=O)[C@H](CCCNC(=N)N)NC(=O)[C@H](CCCNC(=N)N)NC(=O)[C@@H](N)CSSC[C@@H](C(=O)O)NC(=O)[C@H](Cc2c[nH]c3ccccc23)NC(=O)[C@H](Cc2c[nH]c3ccccc23)NC(=O)[C@H](Cc2c[nH]c3ccccc23)NC(=O)[C@H](Cc2c[nH]c3ccccc23)NC1=O [IFX-327] (H-CRRRRWWWWC-OH; disulfide 1-10) .
Completion: 512

###

Listed here: items and their measured HC50.
# Test system: human red blood cells
# Parameters: unit not given beside the values
Non-standard residues stand in square brackets, D forms with d. Residues, ends and D or L forms follow the SMILES beside them. Dip = N[C@H](C(=O)O)C(c1ccccc1)c1ccccc1; 2Nal = N[C@@H](Cc1ccc2ccccc2c1)C(=O)O
Provide a numeric answer; units are not to be included.

>  <compound>
N=C(N)NCCC[C@H](NC(=O)[C@H](CCCNC(=N)N)NC(=O)[C@H](CCCNC(=N)N)NC(=O)[C@@H](N)CCCNC(=N)N)C(=O)N[C@@H](Cc1ccc2ccccc2c1)C(=O)N[C@@H](Cc1ccc2ccccc2c1)C(=O)N[C@@H](Cc1ccc2ccccc2c1)C(=O)N[C@@H](Cc1ccc2ccccc2c1)C(=O)O [IFX-006-1, NH2-Arg-Arg-Arg-Arg-NaI-NaI-NaI-NaI-OH] (H-RRRR[2Nal][2Nal][2Nal][2Nal]-OH)

>  <result.value>
140

$$$$
>  <compound>
N=C(N)NCCC[C@H](NC(=O)[C@H](CCCNC(=N)N)NC(=O)[C@@H](N)CCCNC(=N)N)C(=O)N[C@@H](CCCNC(=N)N)C(=O)N[C@H](C(=O)N[C@@H](Cc1c[nH]c2ccccc12)C(=O)N[C@H](C(=O)O)C(c1ccccc1)c1ccccc1)C(c1ccccc1)c1ccccc1 [IFX-027-1, NH2-R-R-R-R-Dip-Trp-Dip-OH] (H-RRRR[Dip]W[Dip]-OH)

>  <result.value>
910

$$$$
>  <compound>
N=C(N)NCCC[C@H](NC(=O)[C@H](CCCNC(=N)N)NC(=O)[C@@H](N)CCCNC(=N)N)C(=O)N[C@@H](Cc1c[nH]c2ccccc12)C(=O)N[C@H](C(=O)N[C@H](C(=O)O)C(c1ccccc1)c1ccccc1)C(c1ccccc1)c1ccccc1 [IFX-020-1, NH2-R-R-R-Trp-Dip-Dip-OH] (H-RRRW[Dip][Dip]-OH)

>  <result.value>
310

$$$$

Prompt: Assign HC50 to the following record: N=C(N)NCCC[C@@H]1NC(=O)[C@H](CCCNC(=N)N)NC(=O)[C@H](CCCNC(=N)N)NC(=O)[C@H](C(c2ccccc2)c2ccccc2)NC(=O)[C@H](C(c2ccccc2)c2ccccc2)NC(=O)[C@H](C(c2ccccc2)c2ccccc2)NC(=O)[C@H](CCCNC(=N)N)NC(=O)[C@H](CCCNC(=N)N)NC1=O [IFX-012, c[Arg-Arg-Arg-Arg-Arg-Dip-Dip-Dip]] (cyclo([Dip][Dip][Dip]RRRRR))
Completion: 195
